Data provenance: patent EP1803452A1

# ASSAY_METHOD_TEXT: Stability test in buffer (pH 7.4)
# Type: physicochemical
# CONDITIONS_USED: phosphate buffer/acetonitrile 7:3; 10 minutes at 37°C, 100 mM potassium phosphate buffer (pH 7.4) and acetonitrile 7:3 (v/v), LC/MS; read-out: Buf. remaining rate (%/10min)
OBSERVED_PROPERTY: remaining at 10 min (%)

{"SAMPLE_SMILES": "COC(=O)c1ccc(OC(=O)CCCc2ccc(NC(=O)c3ccc(C)cc3-c3ccc(C(F)(F)F)cc3)c(C(=O)N(C)C)c2)cc1", "remaining at 10 min (%)": 94}
{"SAMPLE_SMILES": "CN(C)C(=O)c1cc(CCCC(=O)Oc2ccc(-c3nnn(C)n3)cc2)ccc1NC(=O)c1ccccc1-c1ccc(C(F)(F)F)cc1", "remaining at 10 min (%)": 103}
{"SAMPLE_SMILES": "CN(C)C(=O)c1cc(CCCC(=O)Oc2ccc(C(=O)OCc3ccncc3)cc2)ccc1NC(=O)c1ccccc1-c1ccc(C(F)(F)F)cc1", "remaining at 10 min (%)": 99}
{"SAMPLE_SMILES": "CCc1cc(C(=O)OC)cc(C(=O)OC)c1OC(=O)CCCc1ccc(NC(=O)c2ccc(C)nc2-c2ccc(C(F)(F)F)cc2)c(C(=O)N(C)C)c1", "remaining at 10 min (%)": 98}
{"SAMPLE_SMILES": "COC(=O)c1ccc(OC(=O)CCCc2ccc(NC(=O)c3cccnc3-c3ccc(C(F)(F)F)cc3)c(C(=O)N(C)C)c2)cc1", "remaining at 10 min (%)": 101}
{"SAMPLE_SMILES": "COC(=O)c1cc(C)c(OC(=O)CCCc2ccc(NC(=O)c3ccccc3-c3ccc(C(F)(F)F)cc3)c(C(=O)N(C)C)c2)c(Cl)c1", "remaining at 10 min (%)": 98}
{"SAMPLE_SMILES": "COC(=O)c1cc(OC)c(OC(=O)CCCc2ccc(NC(=O)c3ccc(C)nc3-c3ccc(C(F)(F)F)cc3)c(C(=O)N(C)C)c2)c(OC)c1", "remaining at 10 min (%)": 98}
{"SAMPLE_SMILES": "COC(=O)c1ccc(OC(=O)CCCc2ccc(NC(=O)c3ccccc3-c3ccc(C(F)(F)F)cc3)c(C(=O)N(C)C)c2)c(C(F)(F)F)c1", "remaining at 10 min (%)": 102}
{"SAMPLE_SMILES": "COC(=O)c1cc(C)c(OC(=O)CCCc2ccc(NC(=O)c3ccc(C)nc3-c3ccc(C(F)(F)F)cc3)c(C(=O)N(C)C)c2)c(C(=O)OC)c1", "remaining at 10 min (%)": 99}
{"SAMPLE_SMILES": "CCOC(=O)c1cc(OC)c(OC(=O)CCCc2ccc(NC(=O)c3ccc(C)nc3-c3ccc(C(F)(F)F)cc3)c(C(=O)N(C)C)c2)c(OC)c1", "remaining at 10 min (%)": 101}
{"SAMPLE_SMILES": "CN(C)C(=O)c1cc(CCCC(=O)Oc2ccc(C(=O)OCc3cccc(Cl)c3)cc2)ccc1NC(=O)c1ccccc1-c1ccc(C(F)(F)F)cc1", "remaining at 10 min (%)": 100}
{"SAMPLE_SMILES": "COC(=O)c1cc(OC)c(OC(=O)CCCc2ccc(NC(=O)c3ccc(C)nc3-c3ccc(C(F)(F)F)cc3)c(C(=O)N(C)C)c2)c(C(=O)OC)c1", "remaining at 10 min (%)": 100}

====

# ASSAY_METHOD_TEXT: Metabolic stability test in liver S9
# Type: in vitro ADME
# CONDITIONS_USED: pH 7.4; unchanged form after 10 minutes at 37°C, human liver S9 2 mg protein/mL, LC/MS; read-out: Remaining rate in human liver S9 (%/10min)
OBSERVED_PROPERTY: remaining at 10 min (%)

{"SAMPLE_SMILES": "COC(=O)c1ccc(OC(=O)CCCc2ccc(NC(=O)c3ccc(C)nc3-c3ccc(C(F)(F)F)cc3)c(C(=O)N(C)C)c2)c(C(=O)OC)c1", "remaining at 10 min (%)": 0}
{"SAMPLE_SMILES": "CN(C)C(=O)c1cc(CCCC(=O)Oc2ccc(C(=O)OCc3cccnc3)cc2)ccc1NC(=O)c1ccccc1-c1ccc(C(F)(F)F)cc1", "remaining at 10 min (%)": 0}
{"SAMPLE_SMILES": "CN(C)C(=O)COC(=O)c1ccc(OC(=O)CCCc2ccc(NC(=O)c3ccccc3-c3ccc(C(F)(F)F)cc3)c(C(=O)N(C)C)c2)cc1", "remaining at 10 min (%)": 0}
{"SAMPLE_SMILES": "COC(=O)c1cc(C)c(OC(=O)CCCc2ccc(NC(=O)c3ccc(C)nc3-c3ccc(C(F)(F)F)cc3)c(C(=O)N(C)C)c2)c(C(=O)OC)c1", "remaining at 10 min (%)": 5}

a = CN(C)C(=O)c1cc(CC(=O)Oc2ccc(F)cc2)ccc1NC(=O)c1ccccc1-c1ccc(C(F)(F)F)cc1
b = COc1cc(C(=O)OC(C)C)cc(F)c1OC(=O)CCCc1ccc(NC(=O)c2ccc(C)nc2-c2ccc(C(F)(F)F)cc2)c(C(=O)N(C)C)c1
Problem: So which one has the bigger remaining at 10 min here, a or b ? // output: label of the selected item
Result: b
(b: 11%, a: 0%)

====

# ASSAY_METHOD_TEXT: Metabolic stability test in plasma
# Format: in vitro ADME, human
# CONDITIONS_USED: unchanged form after 60 minutes at 37°C in human plasma, LC/MS; read-out: Remaining rate in human plasma (%/60min)
OBSERVED_PROPERTY: remaining at 1 h (%)

{"SAMPLE_SMILES": "CC(=O)c1ccc(OC(=O)CCCc2ccc(NC(=O)c3ccccc3-c3ccc(C(F)(F)F)cc3)c(C(=O)N(C)C)c2)cc1", "remaining at 1 h, %": 0}
{"SAMPLE_SMILES": "COC(=O)c1ccc(OC(=O)CCCc2ccc(NC(=O)c3ccc(C)cc3-c3ccc(C(F)(F)F)cc3)c(C(=O)N(C)C)c2)cc1", "remaining at 1 h, %": 0}
{"SAMPLE_SMILES": "COc1cccc(COC(=O)c2ccc(OC(=O)CCCc3ccc(NC(=O)c4ccccc4-c4ccc(C(F)(F)F)cc4)c(C(=O)N(C)C)c3)cc2)c1", "remaining at 1 h, %": 0}
{"SAMPLE_SMILES": "COC(=O)c1cc(OC)c(OC(=O)CCCc2ccc(NC(=O)c3ccc(C)nc3-c3ccc(C(F)(F)F)cc3)c(C(=O)N(C)C)c2)c(C(F)(F)F)c1", "remaining at 1 h, %": 0}
{"SAMPLE_SMILES": "CCOC(=O)c1cc(C)c(OC(=O)CCCc2ccc(NC(=O)c3ccc(C)nc3-c3ccc(C(F)(F)F)cc3)c(C(=O)N(C)C)c2)c(Cl)c1", "remaining at 1 h, %": 0}
{"SAMPLE_SMILES": "COC(=O)c1ccc(OC(=O)CCCc2ccc(NC(=O)c3ccc(C)nc3-c3ccc(C(F)(F)F)cc3)c(C(=O)N(C)C)c2)cc1", "remaining at 1 h, %": 0}
{"SAMPLE_SMILES": "COc1cc(C(=O)OC(C)C)cc(F)c1OC(=O)CCCc1ccc(NC(=O)c2ccc(C)nc2-c2ccc(C(F)(F)F)cc2)c(C(=O)N(C)C)c1", "remaining at 1 h, %": 0}
{"SAMPLE_SMILES": "COC(=O)c1ccc(OC(=O)CCCc2ccc(NC(=O)c3ccc(C)nc3-c3ccc(C(F)(F)F)cc3)c(C(=O)N(C)C)c2)cn1", "remaining at 1 h, %": 0}

1 = COC(=O)c1ccc(OC(=O)CCCc2ccc(NC(=O)c3ccccc3-c3ccc(C(F)(F)F)cc3)c(C(=O)N(C)C)c2)c(C(=O)OC)c1
2 = Cc1ccc(C(=O)Nc2ccc(CCCC(=O)Oc3ccc(C(=O)OC(C)C)cc3)cc2C(=O)N(C)C)c(-c2ccc(C(F)(F)F)cc2)n1
3 = CN(C)C(=O)c1cc(CC(=O)Oc2ccccc2)ccc1NC(=O)c1ccccc1-c1ccc(C(F)(F)F)cc1
Problem: rank_up(items): orders items by reported remaining at 1 h in ascending numerical order. Respond with the label ranking, as requested.
Result: 1, 2, 3
(1: 0%, 2: 2%, 3: 5%)

====

# ASSAY_METHOD_TEXT: Metabolic stability test in liver S9
# Type: in vitro ADME
# CONDITIONS_USED: pH 7.4; unchanged form after 10 minutes at 37°C, human liver S9 2 mg protein/mL, LC/MS; read-out: Remaining rate in human liver S9 (%/10min)
OBSERVED_PROPERTY: remaining at 10 min (%)

Here are 3 compounds together with their reported answers.
{"COMPOUND": "CC(=O)c1ccc(OC(=O)CCCc2ccc(NC(=O)c3ccccc3-c3ccc(C(F)(F)F)cc3)c(C(=O)N(C)C)c2)cc1", "READING_UNIT": "%", "remaining at 10 min": 0}
{"COMPOUND": "COC(=O)c1ccc(OC(=O)C2CCN(c3ccc(NC(=O)c4ccccc4-c4ccc(C(F)(F)F)cc4)c(C(=O)N(C)C)c3)CC2)cc1", "READING_UNIT": "%", "remaining at 10 min": 2}
{"COMPOUND": "CC(=O)N1CCC(OC(=O)c2ccc(OC(=O)CCCc3ccc(NC(=O)c4ccccc4-c4ccc(C(F)(F)F)cc4)c(C(=O)N(C)C)c3)cc2)CC1", "READING_UNIT": "%", "remaining at 10 min": 0}

1 = CN(C)C(=O)c1cc(CCCC(=O)Oc2ccc(C(=O)OCc3cccs3)cc2)ccc1NC(=O)c1ccccc1-c1ccc(C(F)(F)F)cc1
2 = CC(C)OC(=O)c1ccc(OC(=O)CCCc2ccc(NC(=O)c3ccncc3-c3ccc(C(F)(F)F)cc3)c(C(=O)N(C)C)c2)cc1
Problem: When the recorded remaining at 10 min values are compared, which is smaller: that of 1 or that of 2 ? Indicate your choice by writing its label.
Result: 2
(2: 1%, 1: 6%)

P = CN(C)C(=O)c1cc(CCCC(=O)Oc2ccc(C(=O)OCc3ccc(Cl)cc3)cc2)ccc1NC(=O)c1ccccc1-c1ccc(C(F)(F)F)cc1
Q = CCc1cc(C(=O)OC)ccc1OC(=O)CCCc1ccc(NC(=O)c2ccccc2-c2ccc(C(F)(F)F)cc2)c(C(=O)N(C)C)c1
R = COC(=O)c1ccc(OC(=O)CCCc2ccc(NC(=O)c3ccccc3-c3ccc(C(F)(F)F)cc3)c(C(=O)N(C)C)c2)cc1OC
S = COC(=O)c1ccc(OC(=O)CCCc2ccc(NC(=O)c3ccccc3-c3ccc(C(=O)OC)cc3)c(C(=O)N(C)C)c2)cc1
Problem: Sort ascending by remaining at 10 min. Would you mind listing the labels in the order asked for?
Result: R, S, Q, P
(R: 0%, S: 1%, Q: 3%, P: 20%)

a = CCC(=O)c1ccc(OC(=O)CCCc2ccc(NC(=O)c3ccccc3-c3ccc(C(F)(F)F)cc3)c(C(=O)N(C)C)c2)cc1
b = CN(C)C(=O)c1cc(CCCC(=O)Oc2ccc(C(=O)OC3CCc4ccccc43)cc2)ccc1NC(=O)c1ccccc1-c1ccc(C(F)(F)F)cc1 (stereo not drawn)
c = CN(C)C(=O)c1cc(CCCC(=O)Oc2ccc(C(=O)O)cc2)ccc1NC(=O)c1ccccc1-c1ccc(C(F)(F)F)cc1
Problem: Rank descending by remaining at 10 min. State the ranking by listing the labels in the requested order.
Result: b, c, a
(b: 11%, c: 4%, a: 0%)
